Source of measurements: the supplement of paper PMC10567573

B1: RIPK4 (parent)
chain: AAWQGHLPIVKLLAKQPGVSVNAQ

# Variants of: B1
# assay.overview: protein stability index of a GFP-peptide fusion (GPS, HEK-293T) (PSI 1-6); higher = more stable;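 note: lentivirally expressed fusions sorted by FACS into six bins by GFP to DsRed ratio, PSI derived from sequencing read proportions per bin multiplied by bin number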
# particulars: c terminus: a fixed tail appended
Label Condition met when protein stability index >= 3; otherwise Condition not met.

Would you please look over these solved cases?
Determine whether this variant has protein stability index no lower than 3: `K15F` Condition not met

Answer whether protein stability index of `Q24N` is greater than or equal to 3. Condition not met

Determine whether measured protein stability index meets or exceeds 3 for `L7E` Condition met

Check the entry `V21H` : does protein stability index equal or exceed 3? Condition not met

Hi team, for `Q4S` , is the recorded protein stability index at or above 3? Condition not met

Continuing:
Check this variant for protein stability index at or above 3: `Q4G` Condition not met

Test whether the variant `V10N` records protein stability index of 3 or higher. Condition not met

Is protein stability index at least 3? Consider `A14G` Condition not met

Is reported protein stability index greater than or equal to 3 here: `Q4F` Condition not met

Check if protein stability index >= 3 (inclusive). Item: `L7R` Condition met

Is reported protein stability index greater than or equal to 3 here: `G18W` Condition not met

Is reported protein stability index greater than or equal to 3 here: `A2D` Condition met
